ASSAY NOTES: Pharmacokinetics and tissue distribution of ibudilast in rat
Type: in vivo
STUDY CONDITIONS: male, Sprague-Dawley, plasma and CNS tissues (brain, spinal cord), ip, i.p. ~5 mg/kg, in 15% ethanol/saline, read-out: maximal concentration (Cmax) in plasma and CNS tissues
OBSERVABLE: Cmax

>  <SMILES REPR>
CC(C)C(=O)c1c(C(C)C)nn2ccccc12

>  <RECORDED RESULT>
~1000 ng/mL

$$$$

----------
ASSAY NOTES: Pharmacokinetics and tissue distribution of ibudilast in rat
Assay type: in vivo
STUDY CONDITIONS: male, Sprague-Dawley, plasma, muscle, brain, spinal cord (all tissue compartments), ip, i.p. 5 mg/kg, all tissue compartments, read-out: elimination half-life
OBSERVABLE: half-life

>  <COMPOUND>
CC(C)C(=O)c1c(C(C)C)nn2ccccc12 [ibudilast]

>  <RECORDED RESULT>
1.67 to 2.32 h

$$$$
